- TEST SYSTEM: Neutrophil collagenase (Homo sapiens)
- Sequence (P22894 whole entry): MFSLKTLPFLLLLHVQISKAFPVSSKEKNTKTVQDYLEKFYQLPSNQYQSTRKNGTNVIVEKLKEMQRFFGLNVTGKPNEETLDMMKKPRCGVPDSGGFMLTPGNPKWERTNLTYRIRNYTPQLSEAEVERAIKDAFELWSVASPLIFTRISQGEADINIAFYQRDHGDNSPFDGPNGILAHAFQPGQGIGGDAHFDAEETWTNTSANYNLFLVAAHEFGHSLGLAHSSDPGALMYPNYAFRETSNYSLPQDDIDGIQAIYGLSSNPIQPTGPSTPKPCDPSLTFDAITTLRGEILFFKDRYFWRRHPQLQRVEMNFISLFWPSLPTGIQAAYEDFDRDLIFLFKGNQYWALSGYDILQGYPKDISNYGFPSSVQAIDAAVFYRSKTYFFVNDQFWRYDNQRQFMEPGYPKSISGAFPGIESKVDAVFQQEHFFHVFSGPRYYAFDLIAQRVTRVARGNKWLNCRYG
- TEST PROTOCOL: Inhibitory activity against matrix metalloprotease-8
pKi: −log10 of the molar value.
OUTCOME MEASURE: pKi

record_smiles=C[C@H](NS(=O)(=O)c1ccccc1)C(=O)NC1=NN=C(c2ccc([N+](=O)[O-])cc2)CS1 outcome_measure=pKi comparison_symbol== observed=6.77
record_smiles=C[C@H](NS(=O)(=O)c1ccccc1)C(=O)NC1=NN=C(c2ccc(C(F)(F)F)cc2)CS1 outcome_measure=pKi comparison_symbol== observed=6.59
record_smiles=C[C@H](NS(=O)(=O)c1ccccc1)C(=O)NC1=NN=C(C23CC4CC(CC(C4)C2)C3)CS1 outcome_measure=pKi comparison_symbol=< observed=4.82
record_smiles=C[C@@H](NS(=O)(=O)c1ccccc1)C(=O)NC1=NN=C(c2ccc(C#N)cc2)CS1 outcome_measure=pKi comparison_symbol== observed=6.64
record_smiles=CC(C)[C@H](NS(=O)(=O)c1ccccc1)C(=O)NC1=NN=C(c2ccc(Cl)cc2)CS1 outcome_measure=pKi comparison_symbol== observed=6.11
